Taken from the supplement of paper PMC12764529.

Experiment: folding stability dG unfold from chymotrypsin proteolysis; higher = more stable
quantity: folding stability dG unfold (kcal/mol)

ordered-residues: SAGGSMKLKPGDEIWVPENMPEDAIKDEIKEWADNFNIKGIDDIEPPKPGWHRIKVEWPNGRKLTISAGGSA [r2_168_TrROS]
numeric-readout: -0.147
--
ordered-residues: SAGGSAGGSAGGKWIMVDSPEDIKEFAEDQGYKIKVDNVHPFPGDKNHYMVWIEIEPPGSAGGSAGGSAGGS [r10_126_TrROS]
numeric-readout: 1.13
--
ordered-residues: SAGGMVIVIKTPGGASELEIGDLTITTNPDTGLRVAEATPEQIEELLKADALKDIEEIEVLPIEELLSAGGS [r8_493_TrMRF]
numeric-readout: -0.0529
--
ordered-residues: SITITRDPDYYTLRIPPGMDSVEEVQDFLKELGFKLPPGVKDIQVEEVDKENNQVTITIQLDDPEAIQDLSA [r9_820_TrROS]
numeric-readout: 0.836
--
ordered-residues: SAGGSAGGKLENLPENVTEVRIEKNENGEYTIYVRNKETNEYVKLKVEKKDGEWKIVEKEVFPKSAGGSAGG [r6_937_TrROS_Hall]
numeric-readout: 3.02
--
ordered-residues: SANDKHKYEEEYPYRNPNDPGQPMPFKREREVPVQPPPVITIDADELAKELKEQGEIKIPPDGWIAIPFSAG [r14_582_TrROS]
numeric-readout: 4.1
--
ordered-residues: SAGPITPEEIQEKVTKAMEEEGMDNVNVDVQRDEDNGRITIQVEVQMPPGNKEKAQRIQDAIQDELGIKSAG [r5_9_TrROS]
numeric-readout: 0.89
